Hey, just so you know, these numbers are from ChEMBL document CHEMBL1949603.

measurement notes: Cmax in Sprague-Dawley rat at 1 mg/kg, po
Type: ADME, organism-based
Set-up: dose 1 mg/kg, route oral
measurement conditions: in vivo
measurement kind: Cmax (µg/mL)
Reply numerically in µg/mL, unit not repeated.

Requested field: Cmax. Item: `Cc1ccc(CCCC(=O)c2ccc(CC[C@@](C)(N)CO)n2C)cc1` 0.0182

* * *

measurement notes: AUC (0 to infinity) in Sprague-Dawley rat at 0.1 mg/kg, po
Format: ADME, organism-based, Plasma
Parameters: dose 0.1 mg/kg, route oral, time infinity
measurement conditions: blood
measurement kind: AUC(0-inf) (ng·h/mL)
Reply numerically in ng·h/mL, unit not repeated.

Requested field: AUC(0-inf). Item: `Cc1ccc(CCCC(=O)c2ccc(CC[C@@](C)(N)CO)n2C)cc1` 31.7
